# experimental-system: T1, PUF4 RNA-binding domain (Saccharomyces cerevisiae, UniProt P25339 537-888)
# T1 sequence: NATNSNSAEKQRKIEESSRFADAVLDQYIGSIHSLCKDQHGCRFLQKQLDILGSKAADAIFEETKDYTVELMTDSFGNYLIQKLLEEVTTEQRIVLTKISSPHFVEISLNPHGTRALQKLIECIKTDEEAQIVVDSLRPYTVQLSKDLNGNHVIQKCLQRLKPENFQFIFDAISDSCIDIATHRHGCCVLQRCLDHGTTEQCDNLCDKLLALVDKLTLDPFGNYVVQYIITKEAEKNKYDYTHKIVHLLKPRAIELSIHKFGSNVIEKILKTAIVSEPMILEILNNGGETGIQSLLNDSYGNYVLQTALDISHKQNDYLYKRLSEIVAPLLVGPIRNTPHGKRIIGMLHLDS
# assay-text: Mg; RNA-MaP; 20 mM Na-HEPES pH 7.4, 30 mM KOAc, 0.75 mM MgCl2, 0.1% Tween-20, 5% glycerol, 0.1 mg/mL BSA, 2 mM DTT; 25 C; 0.0125-409.6 nM protein
# test-conditions: tags: N-His6-TEV cleaved; C-SNAP kept, Cy3B-labelled; label: tethered on chip by stalled RNA polymerase
Provide the recorded log10 of Kd for the entries that follow.
Kindly note that the scale is log10 and the underlying Kd is in nM.

Input: Give its log10 of Kd value. Item: Ic_S2_P5E.1_K5.1_C5.1_H5.1_A5.1_[T5C]_[T6G]_[A7T]_F5.1_[T8G]_[T9G]_[A10T]_T5.1 (ssRNA) RNA: UUUGAUUAAUAUGAUAUCGUUCUUUCUUGUACGUGGUUUCUUUCUCGAUAUCAUAUUAAUCUUU
Output: 2.32

Input: Give its log10 of Kd value. Item: Ic_S4_P3E.1_K3.1_C3.1_H3.1_A3.1_[T5C]_[A6G]_F3.1_[T7G]_[A8C]_T3.1 (ssRNA) RNA: UUUGACAACUGAUCGUUCUUUCUUGUACGGCUUCUUUCUCGAUCAGUUGUCUUU
Output: 3.01

Input: Give its log10 of Kd value. Item: Ie_S2_P3E.2_K3.1_C3.2_[+-1CTCT]_H3.1_A3.1_F3.1_T3.2 (ssRNA) RNA: UUUGAUUAAUAUGAUAUCGUUCUUUCUCUCUCUUGUAUAUAUAUUCUUUCUCGAUAUCAUAUUAAUCUUU
Output: -0.15

Input: Give its log10 of Kd value. Item: UCUCUUCAUAUAUAUAUCUCUCUU (ssRNA) [Id_ii_S1_P3E.3_K3.2_C3.2_[T-1A]_H3.2_A3.1_F3.1_T3.2_[A10C]]
Output: 2.86

Input: Give its log10 of Kd value. Item: Ic_S2_P3E.1_K3.1_C3.1_H3.1_A3.1_[A6T]_F3.1_[T7C]_[A8C]_T3.1 (ssRNA) RNA: UUUGAUUAAUAUGAUAUCGUUCUUUCUUGUAUUCCUUCUUUCUCGAUAUCAUAUUAAUCUUU
Output: 1.88

Where do the numbers come from? From paper PMC9352680.
